- System Tested: vitamin D receptor (Sus scrofa)
- Sequence (A3RGC1 whole entry): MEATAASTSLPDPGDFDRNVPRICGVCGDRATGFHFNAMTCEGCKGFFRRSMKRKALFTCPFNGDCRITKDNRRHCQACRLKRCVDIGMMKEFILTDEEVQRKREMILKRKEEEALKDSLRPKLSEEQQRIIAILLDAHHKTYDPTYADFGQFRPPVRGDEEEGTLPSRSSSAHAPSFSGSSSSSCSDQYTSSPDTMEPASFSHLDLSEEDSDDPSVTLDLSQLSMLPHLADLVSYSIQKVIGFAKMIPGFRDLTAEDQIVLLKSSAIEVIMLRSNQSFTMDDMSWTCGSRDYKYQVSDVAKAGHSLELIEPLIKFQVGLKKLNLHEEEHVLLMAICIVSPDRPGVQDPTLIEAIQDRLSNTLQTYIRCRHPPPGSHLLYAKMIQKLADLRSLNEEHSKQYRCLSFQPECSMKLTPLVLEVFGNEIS
- Experimental Setup: % of the activity of 1α,25-(OH)2D3 at 50% of its activity (B50); 1α,25-(OH)2D3 assigned 100%
Assay Metric: Affinity for pig receptor (%)

Use the examples below as a reference point.
>  <Molecule>
CC(CCCC(C)(C)O)C1CCC2C(=CC=C3CC(O)CC(O)C3)CCC(O)C21 (stereo not shown) [Compound 2]

>  <U>
%

>  <Numeric Value>
0

$$$$
>  <Molecule>
C=C1C(=CC=C2CCCC3C2CCC3C(C)CCCC(C)(C)O)CC(O)CC1O (stereo not shown) [Compound 3]

>  <U>
%

>  <Numeric Value>
100

$$$$
>  <Molecule>
CC(CCCC(C)(C)O)C1CCC2C(=CC=C3CC(O)CC(O)C3)CCCC21C (stereo not shown) [Compound 43]

>  <U>
%

>  <Numeric Value>
25

$$$$
>  <Molecule>
C=C1/C(=C\C=C2/CCC[C@](C)([C@H](C)[C@H](C)CC[C@@H](O)C(C)C)C2)C[C@@H](O)C[C@@H]1O [Compound 5]

>  <U>
%

>  <Numeric Value>
80

$$$$
>  <Molecule>
CCC(O)(CC)CCCCC(C)C1CCC2C(=CC=C3CC(O)CC(O)C3)CCCC21C (stereo not shown) [Compound 55]

>  <U>
%

>  <Numeric Value>
30

$$$$
>  <Molecule>
CC(CCCCC(C)(C)O)C1CCC2C(=CC=C3CC(O)CC(O)C3)CCCC21C (stereo not shown) [Compound 54]

>  <U>
%

>  <Numeric Value>
20

$$$$

(I) C=C1/C(=C\C=C\[C@@H]2CC[C@](C)(CCCCC(O)(CC)CC)C2(C)C)C[C@@H](O)C[C@@H]1O [Compound 38]
(II) CCC(O)(C=CC=CC(C)C1CCC2C(=CC=C3CC(O)CC(O)C3)CCCC21C)CC (stereo not shown) [Compound 50]
(III) C=C1C(=CC=CCC2(C)CCC(CCCC(O)(CC)CC)C2(C)C)CC(O)CC1O (stereo not shown) [Compound 12]
(IV) CC(CC#CC1(C)CO1)C1CCC2C(=CC=C3CC(O)CC(O)C3)CCCC21C (mixture of isomers) [Compound 45]
(V) C=C1C(=CC=CCC2(C)CCC(CCCC(O)(CC)CC)C2(C)C)CC(O)CC1O (stereo not shown) [Compound 16]
Hello, I need these entries ordered by Affinity for pig receptor, highest reading first. Thanks! Reply: labels, ordered per the request.
I, III, V, II, IV
(I: 80%, III: 45%, V: 15%, II: 9%, IV: 2.5%)

(P) C=C1/C(=C\C=C2/CCC[C@](C)([C@H](C)[C@H](C)CCCC(C)(C)O)C2)C[C@@H](O)C[C@@H]1O [Compound 7]
(Q) C=C1C(=CC=CCC2(C)CCC(CCCC(C)(C)O)C2(C)C)CC(O)CC1O (stereo not shown) [Compound 11]
(R) C=C1C(=CC=CCC2(C)CCC(CCCCC(C)(C)O)C2(C)C)CC(O)CC1O (stereo not shown) [Compound 19]
(S) C=C1C(=CC=CCC2(C)CCC(CCCCC(O)(CC)CC)C2(C)C)CC(O)CC1O (stereo not shown) [Compound 20]
Ascending sort, Affinity for pig receptor. Reply: labels, ordered per the request.
Q, R, S, P

(1) CC(CCCC(C)(C)O)C(C)C1(C)CCCC(=CC=C2CC(O)CC(O)C2)C1 (stereo not shown) [Compound 8]
(2) CC1=C(/C=C\C2=CCC[C@](C)([C@H](C)[C@H](C)CC[C@@H](O)C(C)C)C2)C[C@@H](O)C[C@@H]1O [Compound 58]
Param pair: 1 , 2 . Output: the one whose Affinity for pig receptor is numerically greater. Write the label of whichever entry you select.
1
(1: 45%, 2: 3%)

(a) C=C1/C(=C\C=C2/CCC[C@](C)([C@H](C)[C@H](C)CC[C@H](O)C(C)C)C2)C[C@@H](O)C[C@@H]1O [Compound 4]
(b) C=C1C(=CC=CCC2(C)CCC(OCCC(O)(CC)CC)C2(C)C)CC(O)CC1O (stereo not shown) [Compound 18]
# query: argmin of Affinity for pig receptor over a and b Write the label of whichever entry you select.
b
